Numbers sourced from paper PMC9467556.

EXPERIMENT NOTES: pharmacokinetics in BALB/c mice
Assay type: in vivo
ASSAY SETUP: mouse, plasma, IV, 1 mg/kg
MEASURED METRIC: Tmax (min)

- CC1(CNS(N)(=O)=O)CCN(c2ncnc3[nH]ccc23)CC1 [18p]: 4.98

====

EXPERIMENT NOTES: pharmacokinetics in BALB/c mice
Type: in vivo
ASSAY SETUP: mouse, plasma, PO, 10 mg/kg
MEASURED METRIC: Tmax (min)

- CC1(CNS(N)(=O)=O)CCN(c2ncnc3[nH]ccc23)CC1 [18p]: 30

====

EXPERIMENT NOTES: pharmacokinetics in BALB/c mice
Type: in vivo
ASSAY SETUP: mouse, plasma, PO, 10 mg/kg
MEASURED METRIC: half-life (h)

- CC1(CNS(N)(=O)=O)CCN(c2ncnc3[nH]ccc23)CC1 [18p]: 1.56

====

EXPERIMENT NOTES: pharmacokinetics in BALB/c mice
Format: in vivo
ASSAY SETUP: mouse, plasma, PO, 10 mg/kg
MEASURED METRIC: Cmax (ng/mL)

- CC1(CNS(N)(=O)=O)CCN(c2ncnc3[nH]ccc23)CC1 [18p]: 1550

====

EXPERIMENT NOTES: pharmacokinetics in BALB/c mice
Type: in vivo
ASSAY SETUP: mouse, plasma, IV, 1 mg/kg
MEASURED METRIC: half-life (min)

- CC1(CNS(N)(=O)=O)CCN(c2ncnc3[nH]ccc23)CC1 [18p]: 15

====

EXPERIMENT NOTES: pharmacokinetics in BALB/c mice
Assay type: in vivo
ASSAY SETUP: mouse, plasma, IV, 1 mg/kg
MEASURED METRIC: AUC (ng·h/mL)

- CC1(CNS(N)(=O)=O)CCN(c2ncnc3[nH]ccc23)CC1 [18p]: 126

====

EXPERIMENT NOTES: pharmacokinetics in BALB/c mice
Format: in vivo
ASSAY SETUP: mouse, plasma, PO, 10 mg/kg
MEASURED METRIC: AUC(0-t)

- CC1(CNS(N)(=O)=O)CCN(c2ncnc3[nH]ccc23)CC1 [18p]: 1690 ng·h/mL

====

EXPERIMENT NOTES: pharmacokinetics in BALB/c mice
Assay type: in vivo
ASSAY SETUP: mouse, plasma, PO, 10 mg/kg
MEASURED METRIC: AUC (ng·h/mL)

* CC1(CNS(N)(=O)=O)CCN(c2ncnc3[nH]ccc23)CC1 [18p] | 1700

====

Below: a set of entries, each annotated with reported % inhibition.
TARGET ENTITY: human recombinant ENPP1 (Homo sapiens, UniProt P22413)
Construct: purchased R&D systems
Sequence (P22413 whole entry): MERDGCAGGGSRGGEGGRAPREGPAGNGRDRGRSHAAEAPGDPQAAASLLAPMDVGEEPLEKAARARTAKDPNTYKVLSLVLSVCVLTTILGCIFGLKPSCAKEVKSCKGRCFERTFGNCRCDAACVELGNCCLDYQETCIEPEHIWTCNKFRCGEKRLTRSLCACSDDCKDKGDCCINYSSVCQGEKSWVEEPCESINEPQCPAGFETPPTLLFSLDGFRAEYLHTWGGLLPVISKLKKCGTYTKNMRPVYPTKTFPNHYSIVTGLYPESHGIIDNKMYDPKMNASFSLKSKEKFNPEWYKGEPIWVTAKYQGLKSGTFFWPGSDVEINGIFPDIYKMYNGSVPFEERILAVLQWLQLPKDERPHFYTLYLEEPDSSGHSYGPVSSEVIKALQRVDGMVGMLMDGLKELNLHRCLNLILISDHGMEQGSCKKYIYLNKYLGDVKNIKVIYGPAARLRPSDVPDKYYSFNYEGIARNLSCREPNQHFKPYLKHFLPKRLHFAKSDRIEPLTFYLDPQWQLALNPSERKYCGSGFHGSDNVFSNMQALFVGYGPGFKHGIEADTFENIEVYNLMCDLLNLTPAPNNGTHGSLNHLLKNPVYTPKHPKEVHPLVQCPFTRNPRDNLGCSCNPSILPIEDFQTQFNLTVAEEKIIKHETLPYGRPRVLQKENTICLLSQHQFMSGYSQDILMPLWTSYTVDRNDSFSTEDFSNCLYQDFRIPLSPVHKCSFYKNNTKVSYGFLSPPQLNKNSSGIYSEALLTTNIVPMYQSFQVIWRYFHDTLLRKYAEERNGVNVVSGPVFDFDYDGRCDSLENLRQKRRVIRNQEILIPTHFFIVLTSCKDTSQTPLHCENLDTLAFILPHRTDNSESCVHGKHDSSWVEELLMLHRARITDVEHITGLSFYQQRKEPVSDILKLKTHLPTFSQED
EXPERIMENT NOTES: in vitro recombinant human ENPP1 enzymatic assay (AMP-Glo, cGAMP substrate)
Assay type: biochemical
ASSAY SETUP: Table 1; ENPP1; test concentration not given
MEASURED METRIC: % inhibition (%)

• NS(=O)(=O)NCC1CCN(c2ncnc3c2ccn3C2CC2)CC1 [18f] = 100
• NS(=O)(=O)NCC1CCN(c2ncnc3c2ccn3-c2ccoc2)CC1 [18k] = 100
• NS(=O)(=O)NCC1CCN(c2ncnc3c2ccn3-c2ccccc2)CC1 [18g] = 99
• NS(=O)(=O)NCC1CCN(c2ncnc3[nH]ccc23)CC1 [18c] = 100
• Cc1cc2c(N3CCC(CNS(N)(=O)=O)CC3)ncnc2[nH]1 [18n] = 99
• CSc1nc(N2CCC(CCNS(N)(=O)=O)CC2)c2cc[nH]c2n1 [18b] = 34
• NS(=O)(=O)NCC1CCN(c2ncnc3c2ccn3-c2ccc(F)cc2)CC1 [18h] = 54
• Cl.O=S(=O)(NCC1CCN(c2ncnc3[nH]ccc23)CC1)c1cccs1 [20a] = 37
• COc1ccc(-n2ccc3c(N4CCC(CNS(N)(=O)=O)CC4)ncnc32)cc1 [18i] = 37
• NS(=O)(=O)NCC1CCN(c2ncnc3c2ccn3Cc2ccccc2)CC1 [18j] = 17
